Target: human GLP-1 receptor (hGLP1R) (human, UniProt P43220 24-463)
Assay: cell-based or functional assay
Numbered stars: 1 amine (or outer) side, 2 acyl side, 3 side chain; on linkers, the order of the positions; unused ones are H or OH. Square brackets hold non-standard residues; d marks the D form. Side chains are listed from the residue outwards. Ends that are not written are not given here. * marks the point of attachment. C20 diacid = O=C(O)CCCCCCCCCCCCCCCCCCC(=O)*; γGlu = O=C(O)[C@H](CCC(=O)[*:2])N[*:1]; AEEA = NCCOCCOCC(=O)O; Aib = CC(C)(N)C(=O)O
readout_kind: pEC50 hGLPR1

// below: answered binders
- binder: "H[Aib]EGTFTSDVSHLKEEA[Aib]LQRFLEHLV-NH2 (not fully specified (residue 14); also: K14 lipidated with C20DA[γE][OEG][OEG]- or C18DA[γE][OEG][OEG]-) [SEQ ID NO: 145]"
  reported: "11.1 -log M"
- binder: "H[Aib]EGTFTSDVSRLK([AEEA-AEEA-γGlu-C20 diacid])EEAA[Aib]QRFLEHLV-NH2 (also: K14 lipid also given as C18DA[γE][OEG][OEG]-) [SEQ ID NO: 1]"
  reported: "10.4 -log M"
- binder: "H[Aib]EGTFTSDVSDLKEEA[Aib]LQRFLEHLV-NH2 (not fully specified (residue 14)) [SEQ ID NO: 153]"
  reported: "10.7 -log M"

Pending binder:
INPUT: Data request, read-out pEC50 hGLPR1, for H[Aib]EGTFTSDVSWLK([AEEA-AEEA-γGlu-C20 diacid])EEA[Aib]LQRFLEHLV-NH2 [SEQ ID NO: 174]
OUTPUT: 10.9 -log M
